Data provenance is the array DNA melting data of Ke et al. (doi:10.1101/2024.01.08.574731).

test: folding enthalpy; higher = less favourable; fluorescence melt of hairpins on a sequencing array, two-state fit; settings: sodium 0.088 M
Give Y when the value for folding enthalpy is at least -20 kcal/mol. Give N when it is less.

Ask: Does GATCAGAATCCTGATC ((((((....)))))) have a reported folding enthalpy of at least -20 kcal/mol?
Result: N

Ask: Does GGTTACGAAAGTATTACC ((((((....)))..))) have a reported folding enthalpy of at least -20 kcal/mol?
Result: Y

Ask: Does GAGTACCGAAAGGTCTC (((.(((....)))))) have a reported folding enthalpy of at least -20 kcal/mol?
Result: N

Ask: Does GTTCGCCGAAAGGCCAAC (((.(((....))).))) have a reported folding enthalpy of at least -20 kcal/mol?
Result: Y

Ask: Does GCGACATATCGC ((((....)))) have a reported folding enthalpy of at least -20 kcal/mol?
Result: N

====

test: melting temperature; fluorescence melt of hairpins on a sequencing array, two-state fit, raised by 9.35 °C to match UV melts; conditions: sodium 0.088 M
quantity: Tm (°C)
Write the value in °C as a bare number.

Ask: Endpoint output: Tm of GATAACCGAAAGGTGATC (((.(((....))).))) . Value?
Result: 47.8

Ask: Endpoint output: Tm of GTTGTGGGAAACCGCAAC ((((.((....)).)))) . Value?
Result: 53.8

Ask: Endpoint output: Tm of GATCTGTTCGCAGATC ((((((....)))))) . Value?
Result: 53.4

Ask: Endpoint output: Tm of GATCGGTCGTCCGATC ((((((....)))))) . Value?
Result: 60.2

Ask: Endpoint output: Tm of GCATCGGGAAACTGGTGC (((.(.(....).).))) . Value?
Result: 42.7

Ask: Endpoint output: Tm of GGCGTCGAAAGACTGGCC ((((((....)))..))) . Value?
Result: 53.7

Ask: Endpoint output: Tm of GCGAACGATCGC ((((....)))) . Value?
Result: 41.1

Ask: Endpoint output: Tm of GATCTAAGTTAGATC ((((((...)))))) . Value?
Result: 37.3

Ask: Endpoint output: Tm of GGAATTCGAAAGAAATCC (((.(((....))).))) . Value?
Result: 39.5

Ask: Endpoint output: Tm of GATCAGTTGTCTGATC ((((((....)))))) . Value?
Result: 50.5

Ask: Endpoint output: Tm of GTCTCCGAAAGGATGGAC ((((((....)))..))) . Value?
Result: 35.2

====

Would you mind telling me the reported Tm of each entry?
test: melting temperature; fluorescence melt of hairpins on a sequencing array, two-state fit, raised by 9.35 °C to match UV melts; conditions: sodium 0.088 M
Write the value in °C as a bare number.

Ask: Endpoint output: Tm of GATCAGGAACTGATC ((((((...)))))) . Value?
Result: 60.6

Ask: Endpoint output: Tm of GCGGTCACGAAAGTGCGC (((..(((....)))))) . Value?
Result: 52.1

Ask: Endpoint output: Tm of GAGGTGCGAAAGCAACTC (((.(((....))).))) . Value?
Result: 66.5

Ask: Endpoint output: Tm of GTGCAGTCGAAAGACCAC (((..(((....)))))) . Value?
Result: 38.7

Ask: Endpoint output: Tm of GCATTGCGAAAGCGACGC ((.(.((....)).).)) . Value?
Result: 49.3

Ask: Endpoint output: Tm of CGTGCGGAAACGCCCACG ((((((....)))..))) . Value?
Result: 38.2

Ask: Endpoint output: Tm of GAGTCGCGAAAGCGCCTC (((.(((....))).))) . Value?
Result: 54.8

Ask: Endpoint output: Tm of GCGTTTTCACGC ((((....)))) . Value?
Result: 54.2

Ask: Endpoint output: Tm of GCCCTCGAAAGAGCGGGC ((((((....)))..))) . Value?
Result: 50.1

Ask: Endpoint output: Tm of GATCCAAATTGGATC ((((((...)))))) . Value?
Result: 48.3
